Biological target: MNK2 (Homo sapiens, UniProt Q9HBH9)
Construct: the open reading frames of human Mnk1 and Mnk2a were amplified from cDNA
Sequence (Q9HBH9 whole entry): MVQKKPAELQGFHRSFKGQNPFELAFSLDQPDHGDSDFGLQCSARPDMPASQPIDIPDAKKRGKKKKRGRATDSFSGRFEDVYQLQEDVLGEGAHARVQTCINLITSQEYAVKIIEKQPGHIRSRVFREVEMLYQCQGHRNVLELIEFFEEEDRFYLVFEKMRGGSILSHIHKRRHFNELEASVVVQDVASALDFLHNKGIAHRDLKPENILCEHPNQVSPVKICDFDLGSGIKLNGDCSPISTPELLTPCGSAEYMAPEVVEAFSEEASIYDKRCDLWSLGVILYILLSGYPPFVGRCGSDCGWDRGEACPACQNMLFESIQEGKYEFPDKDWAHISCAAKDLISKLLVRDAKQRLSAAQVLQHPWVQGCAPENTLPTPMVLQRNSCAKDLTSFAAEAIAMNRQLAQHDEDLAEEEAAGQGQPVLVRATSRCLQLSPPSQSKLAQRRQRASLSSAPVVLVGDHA
Assay: Mnk2a in vitro kinase assay (indirect fluorescence polarization)
Conditions: pre-activated GST-Mnk2a 2.5 nM, 20 μM ATP, 30 μM substrate peptide

{"Compound": "Cc1c(C(=O)NCC2COCCN2)sc2ncnc(Nc3ccc(F)cc3OC3CCCC(O)C3)c12 (mixture of isomers)", "IC50": "31 nM"}
{"Compound": "CC(=O)N[C@H]1CC[C@H](Oc2cc(F)ccc2Nc2ncnc3sc(C(=O)NCCCN(C)C)c(C)c23)C1", "IC50": "25 nM"}
{"Compound": "CO[C@H]1CCC[C@@H](Oc2ncccc2Nc2ncnc3sc(C(=O)NCCCN4CCCC4)c(C)c23)C1 (racemic)", "IC50": "16 nM"}
{"Compound": "Cc1c(C(=O)NCCCN2CCCC2)sc2ncnc(Nc3ccc(F)cc3O[C@H]3CC[C@H](O)CC3)c12", "IC50": "9 nM"}

----------
Molecular target: MNK2 (Homo sapiens, UniProt Q9HBH9)
Construct: the open reading frames of human Mnk1 and Mnk2a were amplified from cDNA
Experiment: Mnk2a in vitro kinase assay (indirect fluorescence polarization)
Details: pre-activated GST-Mnk2a 2.5 nM, 20 μM ATP, 30 μM substrate peptide
pIC50: −log10 of the molar value. Where a name gives a salt, the structure may show the parent alone.
Listed here: items and their measured pIC50.

{"Compound": "Cc1c(C(N)=O)sc2ncnc(Nc3ccc(F)cc3O[C@@H]3CCC[C@H]4OC(C)(C)O[C@@H]34)c12 (relative stereo) [Example 1]", "pIC50": 7.89}
{"Compound": "COCCNC(=O)c1sc2ncnc(Nc3ccc(F)cc3O[C@@H]3CCCC[C@H]3O)c2c1C [Example 54]", "pIC50": 7.21}
{"Compound": "Cc1c(C(=O)NCCCN2CCCC2)sc2ncnc(Nc3ccc(F)cc3O[C@H]3C[C@@H]4OCO[C@@H]4C3)c12 [Example 291]", "pIC50": 7.72}
{"Compound": "CO[C@H]1CCCC[C@@H]1Oc1cc(F)ccc1Nc1ncnc2sc(C(N)=O)c(C)c12 [Example 42]", "pIC50": 6.85}
{"Compound": "Cc1c(C(N)=O)sc2ncnc(Nc3ccc(F)cc3O[C@H]3CC[C@H](N)C3)c12 [Example 229, trifluoroacetate]", "pIC50": 8.15}
{"Compound": "CCNC(=O)c1sc2ncnc(Nc3ccc(F)cc3O[C@@H]3CCC[C@@H](O)C3)c2c1C (racemic) [Example 78]", "pIC50": 7.60}
{"Compound": "CO[C@H]1CCC[C@@H](Oc2cc(F)ccc2Nc2ncnc3sc(C(=O)NCCO)c(C)c23)C1 (racemic) [Example 101]", "pIC50": 7.68}
{"Compound": "CO[C@@H]1CCC[C@@H](Oc2ncccc2Nc2ncnc3sc(C(=O)NCC#N)c(C)c23)C1 (racemic) [Example 136]", "pIC50": 7.36}
{"Compound": "COCCN(C)[C@H]1CC[C@@H](Oc2cc(F)ccc2Nc2ncnc3sc(C(N)=O)c(C)c23)CC1 [Example 23]", "pIC50": 6.04}
{"Compound": "Cc1c(C(=O)NCC#CCN)sc2ncnc(Nc3ccc(F)cc3O[C@H]3CC[C@H](O)CC3)c12 [Example 160]", "pIC50": 8.22}
{"Compound": "CO[C@H]1CCC[C@@H](Oc2ncccc2Nc2ncnc3sc(C(=O)NCCCCO)c(C)c23)C1 (racemic) [Example 113]", "pIC50": 7.64}
{"Compound": "CONC(=O)c1sc2ncnc(Nc3ccc(F)cc3O[C@H]3C[C@H](NC(C)=O)C3)c2c1C [Example 38]", "pIC50": 7.15}
{"Compound": "Cc1c(C(=O)NC2CCN(C)CC2)sc2ncnc(Nc3ccc(F)cc3OC3CCCCC3O)c12 (single isomer, unassigned) [Example 265]", "pIC50": 7.27}
{"Compound": "CC(=O)N[C@H]1C[C@H](Oc2cc(F)ccc2Nc2ncnc3sc(C(=O)NCC#N)c(C)c23)C1 [Example 241]", "pIC50": 7.31}
{"Compound": "COC1CCCC(Oc2ncccc2Nc2ncnc3sc(C(=O)NC4CC4N)c(C)c23)C1 (mixture of isomers) [Example 111]", "pIC50": 7.44}
